So I've got a bunch of compounds here, and I need their cytotoxicity at 10 µM values.
Assay: Toxicity liver stage against HepG2, at 10uM
Format: cell-based
Design: test concentration 10 uM, cell line HepG2-A16-CD81EGFP
Settings: human, HepG2-A16-CD81EGFP cells; read-out: INHIBITION
Answers are plain numbers, in %.

# Compound, Unit text, Obs value
data = [
    ("CC(C)(C)CNC[C@H]1Cn2ccnc2CO1", "%", -6.17),
    ("CC(=O)N1CC2(CCN(c3ccc4ccccc4n3)CC2)CC1C(=O)O (centres undefined)", "%", 5.33),
    ("COCCCC1CCCCN1Cc1cn2cc(C)ccc2n1 (centres undefined)", "%", 3.21),
    ("Cc1cc(C(=O)NC2CCCN(c3ccccc3)C2=O)on1 (centres undefined)", "%", 24.7),
    ("C[S+]([O-])c1ccc(CNc2ccc(F)cc2OC(F)F)cc1 (centres undefined)", "%", 0.752),
    ("CN1CCN(C2CCN(CCOc3cccc(F)c3)CC2)C1=O", "%", -2.45),
    ("Cn1cnnc1C1CCCN(C(=O)Cc2ccc3c(c2)OCCO3)C1 (centres undefined)", "%", 0.626),
    ("CC(C)c1nc(C2CCCN2CC(=O)Nc2nncs2)no1 (centres undefined)", "%", -3.13),
    ("Cc1nnc(N2CC[C@H]3C[C@H](C(=O)N(C)C)O[C@@H]3C2)s1", "%", -80.9),
    ("COc1ccccc1-c1c[nH]c(C2CCCN2)n1 (centres undefined)", "%", 0.276),
]

Take each entry in turn and give its cytotoxicity at 10 µM.
1. CCS(=O)(=O)NCCNC(=O)N(Cc1ccc(C)o1)C(C)C
2. CCc1c(C)nc(C)nc1N1C[C@@H](CN(C)C)[C@@H](CO)C1
3. O=C(Cc1cccnc1)N1CCC(OCc2ccccc2)CC1
4. CN(Cc1cccnc1)[C@@H]1CN(c2ncc(F)cn2)[C@@H]2CCCO[C@H]12
5. CCc1cc(N(C)Cc2noc(C(C)C)n2)nc(N2CCOCC2)n1
6. c1cc2c(cc1C1CCCN1Cc1nnnn1C1CC1)OCCO2 (centres undefined)
7. Cc1ccc2nc(C)c(C)c(C(=O)N3CCC4(CCO4)CC3)c2c1
8. O=C(Cn1ccc2c(Cl)cccc21)Nc1nc[nH]n1

[1.84, -0.247, -1.96, 0.559, 0.515, -25.7, 0.707, -1.88]
